Reported values: Ki for Gamma-aminobutyric acid receptor subunit alpha-4 (Rattus norvegicus), one per item.

Compound	Ki
CCc1c(C(=O)OC)ncc2[nH]c3cc(OC)c(OC)cc3c12 [NSC_104999]	0.0385 µM
O=c1c2cnc3ccccc3c2[nH]n1-c1ccccc1	0.008 µM
COc1ccc2ncc3c(=O)n(-c4ccccc4)[nH]c3c2c1	0.0225 µM

For Gamma-aminobutyric acid receptor subunit alpha-4 (Rattus norvegicus), provide Ki of CN1Cc2c(C(=O)OC(C)(C)C)ncn2-c2ccc(OCc3ccccc3)cc2C1=O [DM-236] please.
0.188 µM

For Gamma-aminobutyric acid receptor subunit alpha-4 (Rattus norvegicus), provide Ki of COC(=O)c1cc2c(cn1)[nH]c1ccccc12 please.
0.436 µM

For Gamma-aminobutyric acid receptor subunit alpha-4 (Rattus norvegicus), provide Ki of COc1ccc(-n2[nH]c3c(cnc4cc(OC)ccc43)c2=O)cc1 please.
0.0116 µM

For Gamma-aminobutyric acid receptor subunit alpha-4 (Rattus norvegicus), provide Ki of CCc1ccc2c(c1)C(=O)N(C)Cc1c(C(=O)OC(C)(C)C)ncn1-2 [DM 286] please.
0.01 µM

For Gamma-aminobutyric acid receptor subunit alpha-4 (Rattus norvegicus), provide Ki of CCOC(=O)c1ncn2c1CN(C)C(=O)c1cc(F)ccc1-2 please.
0.118 µM

For Gamma-aminobutyric acid receptor subunit alpha-4 (Rattus norvegicus), provide Ki of CCOC(=O)c1ncc2[nH]c3ccc(OCc4ccccc4)cc3c2c1COC [NSC_121926] please.
> 10 µM

For Gamma-aminobutyric acid receptor subunit alpha-4 (Rattus norvegicus), provide Ki of CCOC(=O)c1ncc2[nH]c3cccc(OCc4ccccc4)c3c2c1COC [NSC_123700] please.
0.573 µM
